- ASSAYED SYSTEM: Bcl-w (Homo sapiens, UniProt Q92843, A128E/C29S)
- Construct: human Bcl-w (Acc. no. NP_004041; residues 1-164; C29S A128E); made in house
- Sequence (Q92843 1-164 C29S/A128E): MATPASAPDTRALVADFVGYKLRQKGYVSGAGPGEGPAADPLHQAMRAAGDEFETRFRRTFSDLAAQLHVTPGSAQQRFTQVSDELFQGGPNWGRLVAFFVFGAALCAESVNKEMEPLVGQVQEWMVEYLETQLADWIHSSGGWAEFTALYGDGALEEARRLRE
- TEST: Solution competition assay (competition with immobilized wtBimBH3, biosensor)
- Format: binding
- RECORDED CONDITIONS: Bcl-w, one of 'the others'; read-out: IC50
pIC50: −log10 of the molar value. Ends that are not written are not given here.

{"columns": ["SEQUENCE STRING", "pIC50"],
 "data": [
  ["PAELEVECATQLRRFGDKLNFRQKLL [Noxa (18-43)]", "< 4.00"]
]}
